- Test system: DU-145 prostate
- experimental.details: NCI-60 one-dose screen, 48 h
- run.parameters: 10 µM unless noted
About 83,000 compounds went through this panel and 20% of them were active in at least one assay; those are over-represented in the sample as a whole. Active and inactive are the calls of the source. The calls were made as follows: active = growth percent below 10; inactive = the rest.
Parameter call: string, one of active, inactive

Give the logged outcome of this assay for the following molecule: COc1ccc2c(c1)CC[C@H](O)/C2=C/c1cc(OC)c(OC)c(OC)c1
active

* * *

- Tested on: CCRF-CEM leukemia
- experimental.details: NCI-60 one-dose screen, 48 h
- run.parameters: 10 µM unless noted
- Procedure: Growth inhibition of the CCRF-CEM human tumor cell line is measured as a screen for anti-cancer activity. Cells are grown in 96 well plates and exposed to the test compound for 48 hours. Compounds are tested at a single concentration, which is 10^-5 M for most compounds. The reported endpoint is percent growth (GI% or GIPRCNT), where numbers from 0 - 100% represent growth inhibition, and numbers from -100% - 0 represent cell death. For example, a value of 40 represents 60% growth inhibition. […]
The panel holds about 83,000 compounds, 20% with a hit somewhere; the sample as a whole holds those more often. Active and inactive are the calls of the source. Rule for the calls: active = growth percent below 10; inactive = the rest.
Parameter call: string, one of true (1) = active, false (0) = inactive

Some solved entries appear below for comparison.
molecule	class
CC(C)Cn1cnc2c(=O)[nH]c(N)nc21	false (0)
COc1ccc(-c2nc3c(ncc4ccc(=O)[nH]c43)s2)cc1	false (0)
CCOC(=O)c1c(NC(=O)c2cccc(C(F)(F)F)c2)sc2c(CN(C)C)c(O)ccc12	true (1)
O=C(CSC(=S)n1cnnc1)NC(=O)c1ccccc1	false (0)
COc1ccc(C/C(C)=C(/c2ccc(OCCN(C)C)cc2)c2ccc(OC(=O)NCc3ccccc3)cc2)cc1	false (0)
Cn1cc(-c2nonc2-c2cn(C)c3ccccc23)c2ccccc21	true (1)
CCCC/C(CC)=N\NS(=O)(=O)c1ccc([N+](=O)[O-])cc1	false (0)
Cc1c(-c2ccc(O)cc2)n(Cc2ccc(OCCN3CCCCCC3)cc2)c2ccc(O)cc12	false (0)
COc1ccc2c(c1)c(-c1nc(-c3c[nH]c4ccncc34)cs1)cn2C	true (1)
C1CN(SSN2CCOCC2)CCO1	false (0)

Give the logged outcome of this assay for the following molecule: CCCCCCCC[C@@H]1N[C@@H](C(=O)OC)Cc2c1[nH]c1ccccc21
false (0)

Give the logged outcome of this assay for the following molecule: COC(=O)[C@]12CCC(C)(C)C[C@H]1[C@H]1/C(=N/OCCc3nn[nH]n3)C[C@@H]3[C@@]4(C)CC[C@H](OC(C)=O)C(C)(C)[C@@H]4CC[C@@]3(C)[C@]1(C)CC2
false (0)

Give the logged outcome of this assay for the following molecule: CCN(CC)CCCCCNc1cc(OC(=O)c2ccc(Cl)cc2)cc2cccnc12
false (0)

Give the logged outcome of this assay for the following molecule: COc1cc2c(c(OC)c1OC)CCC(c1cccc(C(=O)Nc3ccc(C#N)cc3)c1)O2 (stereo not given)
false (0)

Give the logged outcome of this assay for the following molecule: O=C(Nc1ccc(OS(=O)(=O)c2ccc(F)cc2)cc1)C1CCCCCC1
false (0)

Give the logged outcome of this assay for the following molecule: Cc1ccc(Nn2c(SCC(=O)Nc3nc(-c4ccccc4)cs3)nc(C)c2C)cc1
false (0)

Give the logged outcome of this assay for the following molecule: COc1ccc(Nc2nc(-c3cc(O)c(C)c(C)c3O)cs2)cc1
false (0)

Give the logged outcome of this assay for the following molecule: COc1ccc(-c2cc(-c3cccnc3)nc3sc4c(=O)[nH]c(-c5ccc(Cl)cc5)nc4c23)cc1OC
false (0)

Give the logged outcome of this assay for the following molecule: COc1ccc(-c2ccc(=O)oc2-c2cc(OC)c(OC)c(OC)c2)cc1O
true (1)

Give the logged outcome of this assay for the following molecule: O=C(Nc1nc(-c2ccc(Cl)cc2)nc2c1sc(=S)n2-c1ccccc1)C(F)(F)F
false (0)
